- ASSAY TARGET: Progesterone receptor (Bos taurus)
- Sequence (Q690N0 whole entry): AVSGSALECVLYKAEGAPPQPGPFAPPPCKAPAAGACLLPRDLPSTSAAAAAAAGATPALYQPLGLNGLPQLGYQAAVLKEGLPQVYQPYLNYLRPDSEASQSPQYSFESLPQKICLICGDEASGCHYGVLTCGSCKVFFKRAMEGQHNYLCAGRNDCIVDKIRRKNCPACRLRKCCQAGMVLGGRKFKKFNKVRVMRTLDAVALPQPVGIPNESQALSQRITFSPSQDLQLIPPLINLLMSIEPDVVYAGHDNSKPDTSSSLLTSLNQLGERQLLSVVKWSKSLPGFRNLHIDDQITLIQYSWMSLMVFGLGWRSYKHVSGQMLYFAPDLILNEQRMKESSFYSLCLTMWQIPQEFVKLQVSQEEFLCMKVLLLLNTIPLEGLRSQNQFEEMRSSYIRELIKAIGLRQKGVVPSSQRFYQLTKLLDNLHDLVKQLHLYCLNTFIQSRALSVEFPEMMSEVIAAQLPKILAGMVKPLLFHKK
- TEST PROTOCOL: DRUGMATRIX: Progesterone radioligand binding (ligand: [3H] R-5020)
- Format: tissue-based, Uterus
- RUN CONDITIONS: Not Active = under 50% inhibition at 10 µM
ENDPOINT NAME: IC50

MOLECULE	ASSAY TARGET	IC50
Nc1ccn([C@@H]2CS[C@H](CO)O2)c(=O)n1	Progesterone receptor (Bos taurus)	Not Active
Oc1ccc(OCc2ccccc2)cc1	Progesterone receptor (Bos taurus)	Not Active
CC(C)C[C@H](NC(=O)[C@@H](O)[C@H](N)Cc1ccccc1)C(=O)O	Progesterone receptor (Bos taurus)	Not Active
S=C=Nc1cccc2ccccc12 [1-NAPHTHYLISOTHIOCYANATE]	Progesterone receptor (Bos taurus)	Not Active

List IC50 for every entry below, keeping the order given.
1. O=S(=O)([O-])CCS.[Na+]
2. CN1C(=O)COc2c(C(=O)NC3CN4CCC3CC4)cc(Cl)cc21 (stereo not given)
3. COc1cc2c(c(OC)c1OC)-c1ccc(OC)c(=O)cc1[C@@H](NC(C)=O)CC2
4. O=c1ccc2ccccc2o1
5. CN1CCC(=C2c3ccccc3C=Cc3ccccc32)CC1
6. CNC(=C[N+](=O)[O-])NCCSCc1ccc(CN(C)C)o1

1. Not Active
2. Not Active
3. Not Active
4. Not Active
5. Not Active
6. Not Active

List IC50 for every entry below, keeping the order given.
1. CC(C)(Oc1ccc(C2CCCc3ccccc32)cc1)C(=O)O (stereo not given)
2. CC(C)NCC(O)COc1cccc2ccccc12 (stereo not given)
3. CCN[C@@H]1C[C@H](N)[C@@H](O[C@H]2OC(CN)=CC[C@H]2N)[C@H](O)[C@H]1O[C@H]1OC[C@](C)(O)[C@H](NC)[C@H]1O
4. CCCC(CCC)C(=O)O

Not Active
Not Active
Not Active
Not Active

List IC50 for every entry below, keeping the order given.
1. Cc1nccn1CC1CCc2c(c3ccccc3n2C)C1=O (stereo not given)
2. CC[C@@H](CO)NCCN[C@@H](CC)CO
3. Cc1onc(-c2ccccc2)c1-c1ccc(S(N)(=O)=O)cc1
4. C[C@@H]1C[C@@H]([C@H](O)CC2CC(=O)NC(=O)C2)C(=O)[C@@H](C)C1 [CYCLOHEXIMIDE]
5. CCN(CC)CCOC(=O)c1ccc(N)cc1
6. CC(C)Cc1ccc(C(C)C(=O)O)cc1 (stereo not given)

["Not Active", "Not Active", "Not Active", "Not Active", "Not Active", "Not Active"]

###

- TEST PROTOCOL: DRUGMATRIX: Interleukin IL-1 radioligand binding (ligand: [125I] interleukin 1beta)
- Type: cell membranes, Membrane
- RUN CONDITIONS: nih3t3; Not Active = under 50% inhibition at 10 µM

MOLECULE	Ki
CN1C(C(=O)Nc2ccccn2)=C(O)c2sccc2S1(=O)=O	Not Active
COc1cccc2c1C(=O)c1c(O)c3c(c(O)c1C2=O)C[C@@](O)(C(=O)CO)C[C@@H]3O[C@H]1C[C@H](N)[C@@H](O)[C@H](C)O1 [EPIRUBICIN]	Not Active
CCC1=C[C@@H]2CN(C1)Cc1c([nH]c3ccccc13)[C@@](C(=O)OC)(c1cc3c(cc1OC)N(C)[C@H]1[C@@](O)(C(=O)OC)[C@H](OC(C)=O)[C@]4(CC)C=CCN5CC[C@]31[C@@H]54)C2	Not Active

###

- ASSAY TARGET: Adenosine receptor A1 (Homo sapiens, UniProt P30542); also: in other assays of this panel Not Active means under 50% inhibition at 10 µM;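 also: radioligand binding assay at the adenosine A1 receptor, with DPCPX serving as the labelled ligand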
- Sequence (P30542 whole entry): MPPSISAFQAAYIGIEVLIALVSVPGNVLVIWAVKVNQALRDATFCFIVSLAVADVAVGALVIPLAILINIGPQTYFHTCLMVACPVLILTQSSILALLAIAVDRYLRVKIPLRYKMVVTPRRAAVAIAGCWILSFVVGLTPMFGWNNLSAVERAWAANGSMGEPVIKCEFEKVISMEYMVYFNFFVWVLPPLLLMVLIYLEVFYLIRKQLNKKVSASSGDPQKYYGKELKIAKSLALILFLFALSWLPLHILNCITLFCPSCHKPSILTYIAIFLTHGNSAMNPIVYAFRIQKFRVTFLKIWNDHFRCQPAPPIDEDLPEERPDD
- Type: cell membranes, Membrane
- RUN CONDITIONS: cho

CHEMICAL STRUCTURE	IC50
O=C(c1ccc(OCCN2CCCCC2)cc1)c1c(-c2ccc(O)cc2)sc2cc(O)ccc12	Not Active
CCC1=C[C@@H]2CN(C1)Cc1c([nH]c3ccccc13)[C@@](C(=O)OC)(c1cc3c(cc1OC)N(C)[C@H]1[C@@](O)(C(=O)OC)[C@H](OC(C)=O)[C@]4(CC)C=CCN5CC[C@]31[C@@H]54)C2	Not Active
C#C[C@]1(O)CC[C@H]2[C@@H]3CCc4cc(OC)ccc4[C@H]3CC[C@@]21C	Not Active

###

- ASSAY TARGET: Androgen receptor (Rattus norvegicus); also: in other assays of this panel Not Active means under 50% inhibition at 10 µM
- Sequence (P15207 whole entry S389L): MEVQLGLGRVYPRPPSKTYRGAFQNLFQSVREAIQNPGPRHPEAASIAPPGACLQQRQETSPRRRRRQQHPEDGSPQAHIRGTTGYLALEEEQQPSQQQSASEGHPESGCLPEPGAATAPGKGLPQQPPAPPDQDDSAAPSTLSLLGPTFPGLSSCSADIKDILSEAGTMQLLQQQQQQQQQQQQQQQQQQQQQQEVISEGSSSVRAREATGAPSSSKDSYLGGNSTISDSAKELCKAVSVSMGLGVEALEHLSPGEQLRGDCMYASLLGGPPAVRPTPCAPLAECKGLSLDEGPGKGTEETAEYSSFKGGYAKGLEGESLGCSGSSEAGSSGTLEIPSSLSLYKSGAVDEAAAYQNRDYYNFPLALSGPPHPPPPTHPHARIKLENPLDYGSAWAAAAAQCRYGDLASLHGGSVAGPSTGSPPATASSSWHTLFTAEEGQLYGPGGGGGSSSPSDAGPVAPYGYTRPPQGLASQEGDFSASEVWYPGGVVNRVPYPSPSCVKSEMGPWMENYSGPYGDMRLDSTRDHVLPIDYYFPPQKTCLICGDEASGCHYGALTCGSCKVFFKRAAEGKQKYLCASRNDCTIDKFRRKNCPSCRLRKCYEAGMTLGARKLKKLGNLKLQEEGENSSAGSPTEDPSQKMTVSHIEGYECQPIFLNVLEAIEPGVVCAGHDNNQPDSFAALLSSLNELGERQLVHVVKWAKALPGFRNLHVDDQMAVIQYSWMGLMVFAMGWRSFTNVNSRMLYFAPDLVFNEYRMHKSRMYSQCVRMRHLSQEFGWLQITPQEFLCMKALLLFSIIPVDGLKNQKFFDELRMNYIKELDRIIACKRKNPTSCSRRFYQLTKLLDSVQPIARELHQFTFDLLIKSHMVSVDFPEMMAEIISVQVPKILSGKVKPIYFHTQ

COMPOUND	IC50
C[C@H]1O[C@@H](O[C@H]2[C@@H](O)C[C@H](O[C@H]3[C@@H](O)C[C@H](O[C@H]4CC[C@@]5(C)[C@H](CC[C@@H]6[C@@H]5CC[C@]5(C)[C@@H](C7=CC(=O)OC7)CC[C@]65O)C4)O[C@@H]3C)O[C@@H]2C)C[C@H](O)[C@@H]1O [DIGITOXIN]	Not Active
O=C1CC2(CCCC2)CC(=O)N1CCCCN1CCN(c2ncccn2)CC1 [BUSPIRONE]	Not Active
N[C@H](CSC(=S)NCc1ccccc1)C(=O)O	Not Active

###

- ASSAY TARGET: Matrix metalloproteinase-9 (Homo sapiens, UniProt P14780); also: in other assays of this panel Not Active means under 50% inhibition at 10 µM;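 also: inhibition of isolated MMP-9 enzyme activity toward a synthetic peptide substrate, from the DrugMatrix protease screening panel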
- Sequence (P14780 whole entry): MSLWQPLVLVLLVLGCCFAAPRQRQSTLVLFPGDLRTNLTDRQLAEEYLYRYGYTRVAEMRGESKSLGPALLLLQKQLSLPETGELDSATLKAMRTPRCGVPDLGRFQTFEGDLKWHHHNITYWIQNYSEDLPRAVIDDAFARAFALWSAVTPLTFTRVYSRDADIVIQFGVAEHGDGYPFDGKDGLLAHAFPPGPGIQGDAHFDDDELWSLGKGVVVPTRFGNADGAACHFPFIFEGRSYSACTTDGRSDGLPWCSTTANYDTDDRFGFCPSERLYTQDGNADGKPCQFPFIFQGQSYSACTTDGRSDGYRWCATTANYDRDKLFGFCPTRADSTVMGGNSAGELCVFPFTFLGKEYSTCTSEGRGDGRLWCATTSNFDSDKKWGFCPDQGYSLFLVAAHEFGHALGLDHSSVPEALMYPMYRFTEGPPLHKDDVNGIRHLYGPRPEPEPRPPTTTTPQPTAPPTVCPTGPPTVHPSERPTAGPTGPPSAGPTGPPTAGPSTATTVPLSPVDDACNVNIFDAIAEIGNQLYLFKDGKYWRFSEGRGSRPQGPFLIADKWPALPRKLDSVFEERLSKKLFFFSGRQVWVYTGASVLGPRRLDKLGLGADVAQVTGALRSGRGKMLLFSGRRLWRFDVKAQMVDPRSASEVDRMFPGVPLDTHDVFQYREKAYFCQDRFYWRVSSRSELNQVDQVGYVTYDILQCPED
- TEST PROTOCOL: biochemical
- Type: cell-based
- RUN CONDITIONS: read-out: IC50
ENDPOINT NAME: IC50 (nM)
Give bare numbers, in nM.

Complete the entry with IC50 for CN(C)/N=N/c1[nH]cnc1C(N)=O
556

###

- TEST PROTOCOL: DRUGMATRIX: Phosphodiesterase PDE3 enzyme inhibition (substrate: [3H]cAMP + cAMP)
- Assay type: tissue-based, Homo sapiens
- RUN CONDITIONS: platelet; Not Active = under 50% inhibition at 10 µM
ENDPOINT NAME: IC50

// below: answered compounds
>>> print(df.to_string())
                                   compound  endpoint_name      result
0                      O=NN(CCCl)C(=O)NCCCl           IC50  Not Active
1  CC(C)c1nc(CN(C)C(=O)N[C@H](C(=O)N[C@@H](Cc2ccccc2)C[C@H](O)[C@H](Cc2ccccc2)NC(=O)OCc2cncs2)C(C)C)cs1           IC50  Not Active
2               CCCCOc1ccc(OCCCN2CCOCC2)cc1           IC50  Not Active
3     Cc1cc(=O)n(-c2ccccc2)n1C [ANTIPYRINE]           IC50  Not Active
4  CCOC(=O)C1=C(C)NC(C)=C(C(=O)OC)C1c1cccc([N+](=O)[O-])c1 (stereo not drawn)           IC50  Not Active

List IC50 for every entry below, keeping the order given.
1. CC1(C)O[C@@H]2C[C@H]3[C@@H]4C[C@H](F)C5=CC(=O)CC[C@]5(C)[C@H]4[C@@H](O)C[C@]3(C)[C@]2(C(=O)CO)O1 [FLURANDRENOLIDE]
2. O=C(O)Cc1ccccc1Nc1c(Cl)cccc1Cl
3. [Cl-].[Cl-].[Zn+2] [ZINC CHLORIDE]

["Not Active", "Not Active", "Not Active"]

###

- TEST PROTOCOL: DRUGMATRIX: Nicotinic Acetylcholine radioligand binding (ligand: [125I] Epibatidine)
- Type: cell membranes, Membrane
- RUN CONDITIONS: imr-32; Not Active = under 50% inhibition at 10 µM
ENDPOINT NAME: Ki

In [3]: df
Out[3]:
                                   compound      result
0  C[C@@]12C(=O)OC(=O)[C@]1(C)[C@H]1CC[C@@H]2O1  Not Active
1  CC(C)[C@H]1CC[C@H](C(=O)N[C@H](Cc2ccccc2)C(=O)O)CC1 [NATEGLINIDE]  Not Active
2        [Cl-].[Cl-].[Zn+2] [ZINC CHLORIDE]  Not Active
3       Cc1cc(C)nc(NS(=O)(=O)c2ccc(N)cc2)n1  Not Active

Complete the entry with Ki for CC1=C(CC(=O)O)c2cc(F)ccc2/C1=C\c1ccc([S+](C)[O-])cc1 (stereo not given)
Not Active

###

- ASSAY TARGET: Polyunsaturated fatty acid lipoxygenase ALOX15 (Oryctolagus cuniculus, UniProt P12530); also: in other assays of this panel Not Active means under 50% inhibition at 10 µM;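 also: inhibition of 15-lipoxygenase enzyme activity measured with linoleic acid as the substrate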
- Sequence (P12530 whole entry): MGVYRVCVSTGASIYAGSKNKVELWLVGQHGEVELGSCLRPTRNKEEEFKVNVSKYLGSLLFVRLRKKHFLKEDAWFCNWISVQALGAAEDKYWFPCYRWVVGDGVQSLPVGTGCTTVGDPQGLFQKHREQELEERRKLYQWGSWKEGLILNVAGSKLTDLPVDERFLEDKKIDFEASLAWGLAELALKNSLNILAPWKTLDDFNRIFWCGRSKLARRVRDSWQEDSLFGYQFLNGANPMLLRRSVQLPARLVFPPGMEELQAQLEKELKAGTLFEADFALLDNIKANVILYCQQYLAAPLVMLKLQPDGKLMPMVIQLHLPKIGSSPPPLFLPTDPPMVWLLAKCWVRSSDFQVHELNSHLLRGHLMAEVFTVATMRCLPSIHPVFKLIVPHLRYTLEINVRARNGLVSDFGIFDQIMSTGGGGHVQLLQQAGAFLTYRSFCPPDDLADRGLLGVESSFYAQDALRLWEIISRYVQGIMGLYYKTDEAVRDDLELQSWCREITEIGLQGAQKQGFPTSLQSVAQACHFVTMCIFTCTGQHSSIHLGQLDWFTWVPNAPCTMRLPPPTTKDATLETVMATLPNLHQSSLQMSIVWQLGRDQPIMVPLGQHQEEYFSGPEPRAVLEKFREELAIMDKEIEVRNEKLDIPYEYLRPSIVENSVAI
- TEST PROTOCOL: biochemical
- Type: tissue-based, Reticulocytes
- RUN CONDITIONS: reticulocytes
ENDPOINT NAME: IC50

// below: answered molecules
MOLECULE	IC50
Nc1c(CC(=O)O)cccc1C(=O)c1ccc(Br)cc1	Not Active
O=c1ccc2ccccc2o1	Not Active
CC(C)(C(=O)c1cccnc1)c1cccnc1	Not Active
O=C(N[C@H](CO)[C@H](O)c1ccc([N+](=O)[O-])cc1)C(Cl)Cl	Not Active
C#C[C@]1(O)CC[C@H]2[C@@H]3CCc4cc(OC)ccc4[C@H]3CC[C@@]21C	Not Active
CN1C(C(=O)Nc2ccccn2)=C(O)c2sccc2S1(=O)=O	Not Active
O=C1CCC(N2C(=O)c3ccccc3C2=O)C(=O)N1 (configuration not stated) [THALIDOMIDE]	Not Active
O=C(O)Cc1ccccc1Nc1c(Cl)cccc1Cl	Not Active
Cc1ccc(S(=O)(=O)NC(=O)NN2CC3CCCC3C2)cc1 (configuration not stated) [GLICLAZIDE]	Not Active
Nc1ccn([C@@H]2CS[C@H](CO)O2)c(=O)n1	Not Active

List IC50 for every entry below, keeping the order given.
1. CCc1c2c(nc3ccc(OC(=O)N4CCC(N5CCCCC5)CC4)cc13)-c1cc3c(c(=O)n1C2)COC(=O)[C@]3(O)CC
2. N=C(N)NC(=O)c1nc(Cl)c(N)nc1N [AMILORIDE]
3. S=C=Nc1cccc2ccccc12 [1-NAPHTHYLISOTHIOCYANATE]
4. CCCC(CCC)C(=O)O
5. CCC1=C[C@@H]2CN(C1)Cc1c([nH]c3ccccc13)[C@@](C(=O)OC)(c1cc3c(cc1OC)N(C)[C@H]1[C@@](O)(C(=O)OC)[C@H](OC(C)=O)[C@]4(CC)C=CCN5CC[C@]31[C@@H]54)C2
6. CCN[C@@H]1C[C@H](N)[C@@H](O[C@H]2OC(CN)=CC[C@H]2N)[C@H](O)[C@H]1O[C@H]1OC[C@](C)(O)[C@H](NC)[C@H]1O
7. CO[C@H]1/C=C/O[C@@]2(C)Oc3c(C)c(O)c4c(c3C2=O)C2=NC3(CCN(CC(C)C)CC3)NC2=C(NC(=O)/C(C)=C\C=C\[C@H](C)[C@H](O)[C@@H](C)[C@@H](O)[C@@H](C)[C@H](OC(C)=O)[C@@H]1C)C4=O
8. CCN(CC)CCOC(=O)c1ccc(N)cc1

1: Not Active; 2: Not Active; 3: Not Active; 4: Not Active; 5: Not Active; 6: Not Active; 7: Not Active; 8: Not Active
